Provide the recorded molar heat capacity at constant pressure for the entries that follow.
- METHOD NOTES: molar heat capacity at constant pressure
- EXPERIMENTAL SETUP: 323.15 K; 101.33 kPa; Liquid; Large sample (1 g) DSC
Entry rule: numbers only, all in J/K/mol.

Consider the compound shown here: COCCOCCOCCO [2-[2-(2-methoxyethoxy)ethoxy]ethanol] What is its recorded molar heat capacity at constant pressure?
362.8

Consider the compound shown here: CCCCCCOCCOCCO What is its recorded molar heat capacity at constant pressure?
432.9

Consider the compound shown here: CCCCOCCO What is its recorded molar heat capacity at constant pressure?
285.5

Consider the compound shown here: CCCCOCCOCCO What is its recorded molar heat capacity at constant pressure?
371.8

Consider the compound shown here: CCCCCCCCOCCOCCOCCO [2-[2-[2-(octyloxy)ethoxy]ethoxy]ethanol] What is its recorded molar heat capacity at constant pressure?
587.7

Consider the compound shown here: COCCOCCO What is its recorded molar heat capacity at constant pressure?
274.7

Consider the compound shown here: COCCOCCOCCOCCO What is its recorded molar heat capacity at constant pressure?
454.8

Consider the compound shown here: CCOCCO What is its recorded molar heat capacity at constant pressure?
220.2

Consider the compound shown here: CCCOCCOCCO What is its recorded molar heat capacity at constant pressure?
339.4

Consider the compound shown here: CCOCCOCCO What is its recorded molar heat capacity at constant pressure?
309.7

Consider the compound shown here: CCCOCCO What is its recorded molar heat capacity at constant pressure?
252.5

====

- METHOD NOTES: molar heat capacity at constant pressure
- EXPERIMENTAL SETUP: 275.15 K; 101.33 kPa; Liquid; Large sample (1 g) DSC
Provide the recorded molar heat capacity at constant pressure for the entries that follow.
Entry rule: numbers only, all in J/K/mol.

Consider the molecule shown here: CCCCCCOCCOCCO [2-(2-hexyloxyethoxy)ethanol] What is its recorded molar heat capacity at constant pressure?
411.2

Consider the molecule shown here: COCCOCCOCCO [2-[2-(2-methoxyethoxy)ethoxy]ethanol] What is its recorded molar heat capacity at constant pressure?
352.2

Consider the molecule shown here: CCOCCOCCO [3,6-dioxa-1-octanol] What is its recorded molar heat capacity at constant pressure?
296.5

Consider the molecule shown here: CCCCOCCOCCO [3,6-dioxa-1-decanol] What is its recorded molar heat capacity at constant pressure?
351.2

Consider the molecule shown here: CCCCOCCO [2-butoxyethan-1-ol] What is its recorded molar heat capacity at constant pressure?
261.7

Consider the molecule shown here: CCOCCO [2-ethoxyethan-1-ol] What is its recorded molar heat capacity at constant pressure?
203.3

====

- METHOD NOTES: molar heat capacity at constant pressure
- EXPERIMENTAL SETUP: 313.15 K; 101.33 kPa; Liquid; Large sample (1 g) DSC
Recorded molar heat capacity at constant pressure split into classes low: < 300 J/K/mol; medium: ≥ 300 J/K/mol and < 400 J/K/mol; high: ≥ 400 J/K/mol

Entry COCCOCCOCCOCCO belongs to which category?
high

Entry COCCOCCO belongs to which category?
low

Entry CCOCCO belongs to which category?
low

Entry CCCCCCCCOCCOCCOCCO [2-[2-[2-(octyloxy)ethoxy]ethoxy]ethanol] belongs to which category?
high

Entry COCCOCCOCCO [2-[2-(2-methoxyethoxy)ethoxy]ethanol] belongs to which category?
medium

Entry CCCOCCOCCO belongs to which category?
medium

Entry CCCCCCOCCOCCO belongs to which category?
high

Entry CCCOCCO belongs to which category?
low

Entry CCCCOCCO belongs to which category?
low

Entry CCCCOCCOCCO belongs to which category?
medium

====

- METHOD NOTES: molar heat capacity at constant pressure
- EXPERIMENTAL SETUP: 321.15 K; 101.33 kPa; Liquid; Large sample (1 g) DSC
Provide the recorded molar heat capacity at constant pressure for the entries that follow.
Entry rule: numbers only, all in J/K/mol.

Consider the molecule shown here: CCCCCCOCCOCCO What is its recorded molar heat capacity at constant pressure?
431.9

Consider the molecule shown here: CCCCOCCO What is its recorded molar heat capacity at constant pressure?
284.5

Consider the molecule shown here: COCCOCCO What is its recorded molar heat capacity at constant pressure?
274

Consider the molecule shown here: CCOCCOCCO What is its recorded molar heat capacity at constant pressure?
309

Consider the molecule shown here: CCCOCCO What is its recorded molar heat capacity at constant pressure?
251.6

Consider the molecule shown here: COCCOCCOCCOCCO What is its recorded molar heat capacity at constant pressure?
454.2

Consider the molecule shown here: CCOCCO What is its recorded molar heat capacity at constant pressure?
219.5

Consider the molecule shown here: CCCCCCCCOCCOCCOCCO [2-[2-[2-(octyloxy)ethoxy]ethoxy]ethanol] What is its recorded molar heat capacity at constant pressure?
586.5

Consider the molecule shown here: COCCOCCOCCO [2-[2-(2-methoxyethoxy)ethoxy]ethanol] What is its recorded molar heat capacity at constant pressure?
362.2

Consider the molecule shown here: CCCCOCCOCCO What is its recorded molar heat capacity at constant pressure?
370.8

Consider the molecule shown here: CCCOCCOCCO What is its recorded molar heat capacity at constant pressure?
338.5

====

- METHOD NOTES: molar heat capacity at constant pressure
- EXPERIMENTAL SETUP: 285.15 K; 101.33 kPa; Liquid; Large sample (1 g) DSC
READOUT NAME: molar heat capacity at constant pressure (J/K/mol)
Entry rule: numbers only, all in J/K/mol.

Consider the molecule shown here: COCCOCCO What is its recorded molar heat capacity at constant pressure?
264.1

Consider the molecule shown here: COCCOCCOCCOCCO What is its recorded molar heat capacity at constant pressure?
446.5

Consider the molecule shown here: CCCCOCCOCCO What is its recorded molar heat capacity at constant pressure?
354.9

Consider the molecule shown here: CCCCCCOCCOCCO What is its recorded molar heat capacity at constant pressure?
415.3

Consider the molecule shown here: CCCCCCCCOCCOCCOCCO [2-[2-[2-(octyloxy)ethoxy]ethoxy]ethanol] What is its recorded molar heat capacity at constant pressure?
567.7

Consider the molecule shown here: CCCOCCOCCO What is its recorded molar heat capacity at constant pressure?
324.7

Consider the molecule shown here: CCCOCCO What is its recorded molar heat capacity at constant pressure?
235.8

Consider the molecule shown here: COCCOCCOCCO [2-[2-(2-methoxyethoxy)ethoxy]ethanol] What is its recorded molar heat capacity at constant pressure?
353.9

Consider the molecule shown here: CCOCCO What is its recorded molar heat capacity at constant pressure?
206.6

Consider the molecule shown here: CCCCOCCO What is its recorded molar heat capacity at constant pressure?
266.6

Consider the molecule shown here: CCOCCOCCO What is its recorded molar heat capacity at constant pressure?
298.5

====

- METHOD NOTES: molar heat capacity at constant pressure
- EXPERIMENTAL SETUP: 275.15 K; 101.33 kPa; Liquid; Large sample (1 g) DSC
READOUT NAME: molar heat capacity at constant pressure (J/K/mol)
Entry rule: numbers only, all in J/K/mol.

Consider the compound shown here: CCCOCCO [2-propoxyethanol] What is its recorded molar heat capacity at constant pressure?
231.6

Consider the compound shown here: COCCOCCO [2-(2-methoxyethoxy)ethanol] What is its recorded molar heat capacity at constant pressure?
261.9

Consider the compound shown here: CCCCCCCCOCCOCCOCCO [2-[2-[2-(octyloxy)ethoxy]ethoxy]ethanol] What is its recorded molar heat capacity at constant pressure?
563.7

Consider the compound shown here: CCCOCCOCCO [2-(2-propoxyethoxy)ethanol] What is its recorded molar heat capacity at constant pressure?
321.3

Consider the compound shown here: COCCOCCOCCOCCO [3,6,9,12-tetraoxatridecanol] What is its recorded molar heat capacity at constant pressure?
445.4

====

- METHOD NOTES: molar heat capacity at constant pressure
- EXPERIMENTAL SETUP: 333.15 K; 101.33 kPa; Liquid; Large sample (1 g) DSC
Numbers after ± are expanded uncertainties.
Provide the recorded molar heat capacity at constant pressure for the entries that follow.

Consider the compound shown here: CCCOCCO What is its recorded molar heat capacity at constant pressure?
257.1 ± 4 J/K/mol

Consider the compound shown here: CCCCOCCOCCO What is its recorded molar heat capacity at constant pressure?
376.9 ± 5.8 J/K/mol

Consider the compound shown here: CCCCOCCO What is its recorded molar heat capacity at constant pressure?
290.6 ± 4.5 J/K/mol

Consider the compound shown here: COCCOCCOCCOCCO What is its recorded molar heat capacity at constant pressure?
458 ± 7.1 J/K/mol

Consider the compound shown here: COCCOCCOCCO [2-[2-(2-methoxyethoxy)ethoxy]ethanol] What is its recorded molar heat capacity at constant pressure?
365.8 ± 5.7 J/K/mol

Consider the compound shown here: COCCOCCO What is its recorded molar heat capacity at constant pressure?
278 ± 4.3 J/K/mol

Consider the compound shown here: CCCOCCOCCO What is its recorded molar heat capacity at constant pressure?
343.8 ± 5.3 J/K/mol

Consider the compound shown here: CCOCCOCCO What is its recorded molar heat capacity at constant pressure?
313.6 ± 4.9 J/K/mol

Consider the compound shown here: CCCCCCOCCOCCO What is its recorded molar heat capacity at constant pressure?
438 ± 6.8 J/K/mol

Consider the compound shown here: CCCCCCCCOCCOCCOCCO [2-[2-[2-(octyloxy)ethoxy]ethoxy]ethanol] What is its recorded molar heat capacity at constant pressure?
594.3 ± 9.2 J/K/mol

Consider the compound shown here: CCOCCO What is its recorded molar heat capacity at constant pressure?
224.1 ± 3.5 J/K/mol

Reference source: the NIST ThermoML archive (doi:10.1021/acs.jced.5b00051)
